B1: HDV Ribozyme (parent)
chain: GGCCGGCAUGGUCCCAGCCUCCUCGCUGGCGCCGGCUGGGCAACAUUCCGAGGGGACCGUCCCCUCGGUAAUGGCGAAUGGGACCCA

- Variants of: B1
- ASSAY: self-cleavage, relative activity (ratio to wild type); higher = more cleavage; co-transcriptional
Would you please tag the item YES when its self-cleavage is 0.2 or above, and NO when it is below?

Some entries whose results are on file:
RESIDUE_CHANGE | CLASS_NAME
C21U C57U | NO
A43G C62U | YES

Task: Is self-cleavage at least 0.2? Consider G1A G59C
Result: YES

Task: Does G55A C66G have a reported self-cleavage of at least 0.2?
Result: YES

Task: Hi team, for A16G C86G , is the recorded self-cleavage at or above 0.2?
Result: YES

Task: Quick check, self-cleavage >= 0.2? C57U G76U
Result: YES
